Here, each record is paired with measured pKd data.
# target.or.system: T1, cynomolgus monkey KLK5 (cynomolgus monkey, UniProt Q9Y337 67-293 (human entry))
# T1 construct: also called cyno KLK5
# T1 chain: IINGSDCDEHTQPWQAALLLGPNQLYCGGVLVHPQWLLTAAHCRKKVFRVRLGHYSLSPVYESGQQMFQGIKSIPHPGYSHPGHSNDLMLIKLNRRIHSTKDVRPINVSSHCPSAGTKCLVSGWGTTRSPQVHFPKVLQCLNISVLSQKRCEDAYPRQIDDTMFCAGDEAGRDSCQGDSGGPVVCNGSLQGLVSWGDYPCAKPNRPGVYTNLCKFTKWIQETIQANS
# assay.method.text: SPR, one-armed monovalent antibody
Units for pKd: none; it is -log10 of a concentration expressed in mol/L.

Consider the following illustrative entries.
binder | pKd
OA.hu.9H5.H14L4 (antibody, V domains shown, One-armed (OA) monovalent anti-KLK5 antibody with a human IgG1 Fc, with Q38E/Q39K; constant regions and dummy Fc chain not specified) VH: EVQLVESGGGLIQPGGSLRLSCAASGFSLSSYGVSWVRKAPGKGLEYVGFIGSGGFAYYASWAKSRFTISRDNSKNTLYLQMNSLRAEDTAVYYCARDDVGGGKSLDIWGQGTLVTVSS VL: DIQMTQSPSSLSASVGDRVTITCQASQSISSYLSWYQEKPGKAPKLLIYSASTLASGVPSRFSGSGSGTDFTLTISSLQPEDFATYYCHQDYTSSNVDNTFGGGTKVEIK | 10.21
OA.hu.9H5.H14L4.G54A.H89V.S95Y (antibody, V domains shown, One-armed (OA) monovalent anti-KLK5 antibody with a human IgG1 Fc, with Q38E/Q39K; constant regions and dummy Fc chain not specified) VH: EVQLVESGGGLIQPGGSLRLSCAASGFSLSSYGVSWVRKAPGKGLEYVGFIGSAGFAYYASWAKSRFTISRDNSKNTLYLQMNSLRAEDTAVYYCARDDVGGGKSLDIWGQGTLVTVSS VL: DIQMTQSPSSLSASVGDRVTITCQASQSISSYLSWYQEKPGKAPKLLIYSASTLASGVPSRFSGSGSGTDFTLTISSLQPEDFATYYCVQDYTSYNVDNTFGGGTKVEIK | 10.76
OA.hu.9H5.H14L4.G54A.G98Q.H89V (antibody, V domains shown, One-armed (OA) monovalent anti-KLK5 antibody with a human IgG1 Fc, with Q38E/Q39K; constant regions and dummy Fc chain not specified) VH: EVQLVESGGGLIQPGGSLRLSCAASGFSLSSYGVSWVRKAPGKGLEYVGFIGSAGFAYYASWAKSRFTISRDNSKNTLYLQMNSLRAEDTAVYYCARDDVQGGKSLDIWGQGTLVTVSS VL: DIQMTQSPSSLSASVGDRVTITCQASQSISSYLSWYQEKPGKAPKLLIYSASTLASGVPSRFSGSGSGTDFTLTISSLQPEDFATYYCVQDYTSSNVDNTFGGGTKVEIK | 11.53

Proceed to the following item.
Noted for OA.hu.9H5.H14L4.G54A.S95Y (antibody, V domains shown, One-armed (OA) monovalent anti-KLK5 antibody with a human IgG1 Fc, with Q38E/Q39K; constant regions and dummy Fc chain not specified) VH: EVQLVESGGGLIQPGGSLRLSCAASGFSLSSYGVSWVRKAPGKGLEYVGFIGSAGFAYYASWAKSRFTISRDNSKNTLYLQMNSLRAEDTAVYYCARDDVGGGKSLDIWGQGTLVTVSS VL: DIQMTQSPSSLSASVGDRVTITCQASQSISSYLSWYQEKPGKAPKLLIYSASTLASGVPSRFSGSGSGTDFTLTISSLQPEDFATYYCHQDYTSYNVDNTFGGGTKVEIK : its pKd reads 10.76
